# Assay details: Plasma concentration in Sprague-Dawley rat at 10 mg/kg, po after 1 hr
# Format: ADME, organism-based
# Set-up: dose 10 mg/kg, route oral
Catalogue of molecules with associated concentration at 1 h
Measured attribute: concentration at 1 h (nM)

> print(dat)
                         chemical.structure    measured.attribute  value.unit  numeric.readout
1  CNC(=O)c1c(NCC2CCC3(CCC3)CC2)nc(C#N)nc1OCC1CCN(C(C)=O)CC1  concentration at 1 h          nM              169
2  CNC(=O)c1c(NCC2CCC3(CCC3)CC2)nc(C#N)nc1OCCO  concentration at 1 h          nM              283
3  CNC(=O)c1c(NCC2CCC3(CCC3)CC2)nc(C#N)nc1OCC1CCNCC1  concentration at 1 h          nM               28
4  CNC(=O)c1c(NCC2CCC3(CCC3)CC2)nc(C#N)nc1OCC1CCN(C)CC1  concentration at 1 h          nM              346
5  CNC(=O)c1c(NCC2CCC3(CCC3)CC2)nc(C#N)nc1OCC1CCN(C(C)C)CC1  concentration at 1 h          nM              191

* * *

Catalogue of compounds with associated concentration at 3 h
# Assay details: Plasma concentration in Sprague-Dawley rat at 10 mg/kg, po after 3 hrs
# Assay type: ADME, organism-based
# Parameters: dose 10 mg/kg, route oral
Measured attribute: concentration at 3 h (nM)

> print(dat)
                         chemical.structure  numeric.readout
1  CNC(=O)c1c(NCC2CCC3(CCC3)CC2)nc(C#N)nc1OCC1CCN(C(C)C)CC1              381
2  CNC(=O)c1c(NCC2CCC3(CCC3)CC2)nc(C#N)nc1OCC1CCN(C(C)=O)CC1               80
3  CNC(=O)c1c(NCC2CCC3(CCC3)CC2)nc(C#N)nc1OCC1CCNCC1               61
4  CNC(=O)c1c(NCC2CCC3(CCC3)CC2)nc(C#N)nc1OCC1CCN(C)CC1              308
5  CNC(=O)c1c(NCC2CCC3(CCC3)CC2)nc(C#N)nc1OCCO              170
6  CNC(=O)c1c(NCC2CCC3(CCC3)CC2)nc(C#N)nc1OC1CC(C)(C)NC(C)(C)C1              287

* * *

# Assay details: Drug level in Sprague-Dawley rat brain at 10 mg/kg, po after 3 hrs
# Format: ADME, organism-based
# Set-up: dose 10 mg/kg, route oral
# Experimental setup: read-out: Drug uptake
Catalogue of compounds with associated concentration at 3 h
Measured attribute: concentration at 3 h (nM)

> print(dat)
                         chemical.structure  value.unit  value.operator  numeric.readout
1  CNC(=O)c1c(NCC2CCC3(CCC3)CC2)nc(C#N)nc1OCCO          nM               =              849
2  CNC(=O)c1c(NCC2CCC3(CCC3)CC2)nc(C#N)nc1OCC1CCN(C(C)C)CC1          nM               =              455
3  CNC(=O)c1c(NCC2CCC3(CCC3)CC2)nc(C#N)nc1OCC1CCN(C)CC1          nM               =              718
4  CNC(=O)c1c(NCC2CCC3(CCC3)CC2)nc(C#N)nc1OC1CC(C)(C)NC(C)(C)C1          nM               =              164
5  CNC(=O)c1c(NCC2CCC3(CCC3)CC2)nc(C#N)nc1OCC1CCN(C(C)=O)CC1          nM               <               13
6  CNC(=O)c1c(NCC2CCC3(CCC3)CC2)nc(C#N)nc1OCC1CCNCC1          nM               <               13

* * *

# Assay details: Half life in Sprague-Dawley rat at 1 mg/kg, iv
# Format: ADME, organism-based
# Design: dose 1 mg/kg, route intravenous
# Experimental setup: in vivo
Catalogue of compounds with associated half-life
Measured attribute: half-life

> print(dat)
                         chemical.structure  measured.attribute  result
1  CNC(=O)c1c(NCC2CCC3(CCC3)CC2)nc(C#N)nc1OCCO           half-life   1.5 h
2  CNC(=O)c1c(NCC2CCC3(CCC3)CC2)nc(C#N)nc1OCC1CCN(C(C)C)CC1           half-life  11.8 h
3  CNC(=O)c1c(NCC2CCC3(CCC3)CC2)nc(C#N)nc1OCC1CCN(C)CC1           half-life   6.7 h

* * *

# Assay details: Plasma clearance in Sprague-Dawley rat at 1 mg/kg, iv or 10 mg/kg, po
# Type: ADME, organism-based
Measured attribute: clearance

> print(dat)
                         chemical.structure          result
1  CNC(=O)c1c(NCC2CCC3(CCC3)CC2)nc(C#N)nc1OCCO    25 mL/min/kg
2  CNC(=O)c1c(NCC2CCC3(CCC3)CC2)nc(C#N)nc1OCC1CCN(C(C)C)CC1    10 mL/min/kg
3  CNC(=O)c1c(NCC2CCC3(CCC3)CC2)nc(C#N)nc1OCC1CCN(C)CC1  18.3 mL/min/kg

* * *

Catalogue of molecules with associated concentration at 1 h
# Assay details: Drug level in Sprague-Dawley rat brain at 10 mg/kg, po after 1 hr
# Assay type: ADME, organism-based
# Set-up: dose 10 mg/kg, route oral
# Experimental setup: read-out: Drug uptake
Measured attribute: concentration at 1 h (nM)

> print(dat)
                         chemical.structure  value.operator  numeric.readout
1  CNC(=O)c1c(NCC2CCC3(CCC3)CC2)nc(C#N)nc1OCC1CCNCC1               <               13
2  CNC(=O)c1c(NCC2CCC3(CCC3)CC2)nc(C#N)nc1OCCO               =              692
3  CNC(=O)c1c(NCC2CCC3(CCC3)CC2)nc(C#N)nc1OCC1CCN(C(C)=O)CC1               =               27
4  CNC(=O)c1c(NCC2CCC3(CCC3)CC2)nc(C#N)nc1OCC1CCN(C(C)C)CC1               =               67
5  CNC(=O)c1c(NCC2CCC3(CCC3)CC2)nc(C#N)nc1OCC1CCN(C)CC1               =              124

* * *

# Assay details: Volume of distribution at steady state in Sprague-Dawley rat at 1 mg/kg, iv
# Assay type: ADME, organism-based
# Design: dose 1 mg/kg, route intravenous
# Experimental setup: in vivo, read-out: Vdss
Measured attribute: Vd (L/kg)

> print(dat)
                         chemical.structure  numeric.readout
1  CNC(=O)c1c(NCC2CCC3(CCC3)CC2)nc(C#N)nc1OCC1CCN(C)CC1              9.8
2  CNC(=O)c1c(NCC2CCC3(CCC3)CC2)nc(C#N)nc1OCC1CCN(C(C)C)CC1              9.3
3  CNC(=O)c1c(NCC2CCC3(CCC3)CC2)nc(C#N)nc1OCCO              1.2

Data credit: ChEMBL document CHEMBL1144211
